- Tested on: Mycobacterium tuberculosis
- procedure.details: Antitubercular activity against Mycobacterium tuberculosis H37Rv
- Format: functional
measured.attribute: MIC (µg/mL)
One number for each entry, in µg/mL.

Sample answers from the record:
[
  {
    "compound": "CCCCCCCCCCCCCCNCCNc1c(F)cc2c(=O)c(C(=O)O)cn(C3CC3)c2c1OC",
    "reported.measurement": 6.25
  },
  {
    "compound": "CCCCCCNCCCNc1c(F)cc2c(=O)c(C(=O)O)cn(C3CC3)c2c1OC",
    "reported.measurement": 50
  }
]

Need MIC for each of these compounds.
1. CCCCCCCCNCCCNc1c(F)cc2c(=O)c(C(=O)O)cn(C3CC3)c2c1OC
2. CCCCCCCCCCCCNCCNc1c(F)cc2c(=O)c(C(=O)O)cn(C3CC3)c2c1OC
3. CCCCCCCCCCCCCCNCCCNc1c(F)cc2c(=O)c(C(=O)O)cn(C3CC3)c2c1OC

Solution:
1.25
1.25
0.62

Please state, for each entry, its recorded MIC.
1. CCCCC(CC)CNCCCNc1c(F)cc2c(=O)c(C(=O)O)cn(C3CC3)c2c1OC (centres undefined)
2. COc1c(N2CCNC(C)C2)c(F)cc2c(=O)c(C(=O)O)cn(C3CC3)c12 (centres undefined)
3. CCCCCCCCCCCCNCCCNc1c(F)cc2c(=O)c(C(=O)O)cn(C3CC3)c2c1OC
4. CCCCCCCCCCNCCCNc1c(F)cc2c(=O)c(C(=O)O)cn(C3CC3)c2c1OC

Solution:
1: 2.5; 2: 0.1; 3: 0.62; 4: 0.31

###

- Test system: Mycobacterium tuberculosis
- procedure.details: Antitubercular activity against Mycobacterium tuberculosis H37Rv
- Assay type: functional
measured.attribute: MIC
Answer shape: numeric part, then the unit.

[
  {
    "compound": "CCCCCCNCCNc1c(F)cc2c(=O)c(C(=O)O)cn(C3CC3)c2c1OC",
    "measured.attribute": "MIC",
    "reported.measurement": "5 µg/mL"
  },
  {
    "compound": "CO[C@H]1/C=C/O[C@@]2(C)Oc3c(C)c(O)c4c(O)c(c(/C=N/N5CCN(C)CC5)c(O)c4c3C2=O)NC(=O)/C(C)=C\\C=C\\[C@H](C)[C@H](O)[C@@H](C)[C@@H](O)[C@@H](C)[C@H](OC(C)=O)[C@@H]1C",
    "measured.attribute": "MIC",
    "reported.measurement": "1 µg/mL"
  }
]

// each compound listed below needs its MIC
1. CCCCCCCCCCNCCNc1c(F)cc2c(=O)c(C(=O)O)cn(C3CC3)c2c1OC
2. CCCCCCCCNCCNc1c(F)cc2c(=O)c(C(=O)O)cn(C3CC3)c2c1OC
3. CCCCC(CC)CNCCNc1c(F)cc2c(=O)c(C(=O)O)cn(C3CC3)c2c1OC (stereo not given)

Solution:
["0.62 µg/mL", "12.5 µg/mL", "0.62 µg/mL"]
